B1: library; numbered along this chain (parent)
chain: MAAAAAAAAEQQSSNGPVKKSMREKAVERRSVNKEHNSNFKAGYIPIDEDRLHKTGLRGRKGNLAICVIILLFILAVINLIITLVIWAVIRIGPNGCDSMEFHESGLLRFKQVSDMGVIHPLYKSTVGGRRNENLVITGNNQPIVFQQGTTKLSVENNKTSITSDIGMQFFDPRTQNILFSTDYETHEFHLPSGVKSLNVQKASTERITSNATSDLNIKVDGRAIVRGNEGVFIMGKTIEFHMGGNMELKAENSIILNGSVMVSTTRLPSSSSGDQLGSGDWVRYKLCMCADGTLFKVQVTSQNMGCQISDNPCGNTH

# Variants of: B1
# ASSAY PROCEDURE: SGCB cell-surface expression functional score (HA stain, bin4 vs bin1, normalised to synonymous) (log10 ratio); higher = more cell-surface SGCB (functional)
QUANTITY: SGCB cell-surface expression functional score (log10)
Answer as a number with no unit attached.

// worked examples, SGCB cell-surface expression functional score (log10) included
G245D
0.77
Q169K
0
T55E
-0.18

Incoming: Could you share which SGCB cell-surface expression functional score (log10) value was measured for T182C ?
Outgoing: -2.09

Incoming: Could you share which SGCB cell-surface expression functional score (log10) value was measured for M247S ?
Outgoing: 0.26

Incoming: Could you share which SGCB cell-surface expression functional score (log10) value was measured for G56M ?
Outgoing: -0.31

Incoming: Could you share which SGCB cell-surface expression functional score (log10) value was measured for D115E ?
Outgoing: -0.54

Incoming: Could you share which SGCB cell-surface expression functional score (log10) value was measured for I166N ?
Outgoing: -0.78
